- System: Puccinia triticina
- measurement_protocol: Wheat brown rust (PUCCRT), disease control on wheat seedlings
- Type: in vivo
- conditions: 72 h, low volume application at 121.5 g/H, 3 Day Curative, read-out: PUCCRT disease control, 3DC, LV activity
Please provide measured pest or weed control at 121.5 g/ha for the entries that follow.

// query Suppose we examine the compound `COc1cc[n+]([O-])c(C(=O)N[C@@H](C)C(=O)O[C@@H](C)[C@@H](c2ccc(C)cc2C)C(C)C)c1O` ; what pest or weed control at 121.5 g/ha value has been reported?
// result < 0%

// query Suppose we examine the compound `COc1cc(F)ccc1[C@@H](C1CCCC1)[C@H](C)OC(=O)[C@H](C)NC(=O)c1nccc(OC)c1OCOC(C)=O` ; what pest or weed control at 121.5 g/ha value has been reported?
// result < 80%

// query Suppose we examine the compound `COc1ccnc(C(=O)N[C@@H](C)C(=O)O[C@@H](C)[C@H](c2ccc(F)cc2C)C2CCCC2)c1OCOC(C)=O` ; what pest or weed control at 121.5 g/ha value has been reported?
// result > 80%

// query Suppose we examine the compound `COc1ccnc(C(=O)N[C@@H](C)C(=O)O[C@@H](C)[C@@H](c2ccc(C)cc2C)C2CCC2)c1OC(C)=O` ; what pest or weed control at 121.5 g/ha value has been reported?
// result < 80%

// query Suppose we examine the compound `COc1ccnc(C(=O)N[C@@H](C)C(=O)O[C@@H](C)[C@@H](c2ccc(C)cc2C)C2CCCC2)c1OC(C)=O` ; what pest or weed control at 121.5 g/ha value has been reported?
// result < 80%

// query Suppose we examine the compound `COc1ccnc(C(=O)N[C@@H](C)C(=O)O[C@@H](C)[C@H](c2ccc(C)cc2)C2CC2)c1OC(C)=O` ; what pest or weed control at 121.5 g/ha value has been reported?
// result > 80%

// query Suppose we examine the compound `COc1ccnc(C(=O)N[C@@H](C)C(=O)O[C@@H](C)[C@@H](c2ccccc2)C2CCCC2)c1OC(C)=O` ; what pest or weed control at 121.5 g/ha value has been reported?
// result < 80%

// query Suppose we examine the compound `COc1ccnc(C(=O)N[C@@H](C)C(=O)O[C@@H](C)[C@@H](c2ccc(C)cc2C)C2CCCCC2)c1OC(C)=O` ; what pest or weed control at 121.5 g/ha value has been reported?
// result < 0%

// query Suppose we examine the compound `COc1ccnc(C(=O)N[C@@H](C)C(=O)O[C@H](C)[C@H](c2ccc(F)cc2C)C2CCCCC2)c1OCOC(C)=O` ; what pest or weed control at 121.5 g/ha value has been reported?
// result < 0%

// query Suppose we examine the compound `COc1ccnc(C(=O)N[C@@H](C)C(=O)O[C@@H](C)[C@H](c2ccc(F)cc2C)C2CCCC2)c1OC(C)=O` ; what pest or weed control at 121.5 g/ha value has been reported?
// result > 80%

// query Suppose we examine the compound `COc1cc(F)ccc1[C@@H](C1CCCCC1)[C@H](C)OC(=O)[C@H](C)NC(=O)c1nccc(OC)c1OC(C)=O` ; what pest or weed control at 121.5 g/ha value has been reported?
// result < 80%

// query Suppose we examine the compound `COc1ccnc(C(=O)N[C@@H](C)C(=O)O[C@@H](C)[C@H](c2ccc(F)c(F)c2)C(C)C)c1OC(C)=O` ; what pest or weed control at 121.5 g/ha value has been reported?
// result > 80%

// query Suppose we examine the compound `COc1ccnc(C(=O)N[C@@H](C)C(=O)O[C@@H](C)[C@H](c2ccc(Cl)cc2)C(C)C)c1OC(C)=O` ; what pest or weed control at 121.5 g/ha value has been reported?
// result > 80%

// query Suppose we examine the compound `COc1cc(F)ccc1[C@H](C1CCCCC1)[C@H](C)OC(=O)[C@H](C)NC(=O)c1nccc(OC)c1OC(C)=O` ; what pest or weed control at 121.5 g/ha value has been reported?
// result > 80%

// query Suppose we examine the compound `COCCC(=O)Oc1c(OC)ccnc1C(=O)N[C@@H](C)C(=O)O[C@@H](C)[C@H](c1ccc(F)c(C)c1)C(C)C` ; what pest or weed control at 121.5 g/ha value has been reported?
// result > 80%

// query Suppose we examine the compound `COc1ccnc(C(=O)N[C@@H](C)C(=O)O[C@@H](C)[C@@H](c2ccc(F)cc2C)C(C)C)c1OC(C)=O` ; what pest or weed control at 121.5 g/ha value has been reported?
// result < 80%

// query Suppose we examine the compound `COc1ccc([C@H](C(C)C)[C@H](C)OC(=O)[C@H](C)NC(=O)c2nccc(OC)c2OCOC(C)=O)c(OC)c1` ; what pest or weed control at 121.5 g/ha value has been reported?
// result > 80%

// query Suppose we examine the compound CCC(C)[C@H](c1ccc(F)cc1C)[C@H](C)OC(=O)[C@H](C)NC(=O)c1nccc(OC)c1OC(C)=O (stereo partly drawn) ; what pest or weed control at 121.5 g/ha value has been reported?
// result < 80%

// query Suppose we examine the compound `CC[C@H](C)[C@H](NC(=O)c1nccc(OC)c1OC(C)=O)C(=O)O[C@@H](C)[C@H](c1ccc(F)cc1C)C(C)C` ; what pest or weed control at 121.5 g/ha value has been reported?
// result < 80%

// query Suppose we examine the compound `COc1cc(F)ccc1[C@H](C1CCCC1)[C@H](C)OC(=O)[C@H](C)NC(=O)c1nccc(OC)c1OC(C)=O` ; what pest or weed control at 121.5 g/ha value has been reported?
// result < 80%

// query Suppose we examine the compound CCC(C)[C@H](c1ccc(C)cc1C)[C@H](C)OC(=O)[C@H](C)NC(=O)c1c(O)c(OC)cc[n+]1[O-] (stereo partly drawn) ; what pest or weed control at 121.5 g/ha value has been reported?
// result < 0%

// query Suppose we examine the compound `COc1ccc([C@H](C(C)C)[C@H](C)OC(=O)[C@H](C)NC(=O)c2nccc(OC)c2OC(C)=O)c(OC)c1` ; what pest or weed control at 121.5 g/ha value has been reported?
// result < 80%

// query Suppose we examine the compound `COCCC(=O)Oc1c(OC)ccnc1C(=O)N[C@@H](C)C(=O)O[C@@H](C)[C@H](c1ccc(C)cc1OC)C(C)C` ; what pest or weed control at 121.5 g/ha value has been reported?
// result > 80%

// query Suppose we examine the compound `COc1ccnc(C(=O)N[C@@H](C)C(=O)O[C@@H](C)[C@H](c2ccccc2F)C(C)C)c1OC(C)=O` ; what pest or weed control at 121.5 g/ha value has been reported?
// result > 80%

// query Suppose we examine the compound `COc1ccccc1[C@H](C(C)C)[C@H](C)OC(=O)[C@H](C)NC(=O)c1nccc(OC)c1OC(C)=O` ; what pest or weed control at 121.5 g/ha value has been reported?
// result < 80%

// query Suppose we examine the compound `COc1ccnc(C(=O)N[C@@H](C)C(=O)O[C@H](C)[C@H](c2ccc(F)cc2C)C(C)C)c1OC(C)=O` ; what pest or weed control at 121.5 g/ha value has been reported?
// result < 80%

// query Suppose we examine the compound `COc1ccc([C@H](C(C)C)[C@H](C)OC(=O)[C@H](C)NC(=O)c2nccc(OC)c2OCOC(C)=O)cc1F` ; what pest or weed control at 121.5 g/ha value has been reported?
// result < 80%
